Origin of values: patent US3991053A

# Tested on: Salmonella choleraesuis
# METHOD NOTES: In vitro MIC, two-fold serial dilution in Brain-Heart Infusion Broth, Salmonella choleraesuis
# TEST CONDITIONS: Salmonella enterica, read-out: MIC (minimum inhibitory concentration) Sal. choleraesuis
Quick reference: MIC of the listed items.

COMPOUND | UNIT TEXT | MIC
CC1(O)OCc2c1[n+]([O-])c1ccccc1[n+]2[O-] (stereo not drawn) | µg/mL | 1.56
CC1(OCc2ccccc2)OCc2c1[n+]([O-])c1ccccc1[n+]2[O-] (stereo not drawn) | µg/mL | 12.5
COC1(C)OCc2c1[n+]([O-])c1ccccc1[n+]2[O-] (stereo not drawn) | µg/mL | 1.56
